Below are Ki values recorded for c-MET (Homo sapiens, UniProt P08581).

Some solved cases for reference:
COC(=O)[C@H](CC(C)C)NC(=O)Nc1ccc(-c2cnc(N)c(-c3nnnn3-c3cccc(F)c3F)c2)cc1 | 100 to 1000 nM
Nc1ncc(-c2cnn(Cc3ccccc3)c2)cc1-c1nnnn1-c1cccc(F)c1F | ≤ 100 nM
Nc1ncc(-c2ccc(CN3CC[C@@H](O)C3)cc2)cc1-c1nnnn1-c1cccc(F)c1F | ≤ 100 nM
N#Cc1cccc(-c2cnc(N)c(-c3nnnn3-c3cccc(F)c3F)c2)c1 | 100 to 1000 nM
Nc1ncc(-c2cnn(C3CCOCC3)c2)cc1-c1nnnn1-c1cccc(Cl)c1F | ≤ 100 nM

Tell me the measured Ki of "Nc1ncc(-c2cc(Cl)c(N)c(Cl)c2)cc1-c1nnnn1-c1cccc(F)c1F" , please.
≤ 100 nM

Now give it for "NCN1CCN(Cc2ccc(-c3cnc(N)c(-c4nnnn4-c4cccc(Cl)c4Cl)c3)cc2)CC1" too.
≤ 100 nM

Now give it for "CC(=O)c1ccc(-c2cnc(N)c(-c3nnnn3-c3cccc(F)c3F)c2)s1" too.
100 to 1000 nM
